B1: HDV Ribozyme (parent)
chain: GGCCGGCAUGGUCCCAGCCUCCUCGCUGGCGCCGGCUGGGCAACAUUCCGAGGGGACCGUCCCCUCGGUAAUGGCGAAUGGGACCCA

Variants of: B1
procedureText: self-cleavage, relative activity (ratio to wild type); higher = more cleavage; co-transcriptional
propertyName: self-cleavage
Enter a number only.

>  <variantNotation>
A8C C84U

>  <self-cleavage>
0.462

$$$$
>  <variantNotation>
U27A A87C

>  <self-cleavage>
0.88

$$$$

self-cleavage in this record for G38A G80A : 0.0372

Recorded self-cleavage (variant C7A U27A ): 0.609

Entry G34C C49G ; self-cleavage = 0.264

Notebook: U23C G76C , self-cleavage read as 1.05

Per the record, C32A A78G has self-cleavage of 0.113

Recorded result, G39A C86G , self-cleavage: 0.534

Recorded self-cleavage (variant C48A C85A ): 0.717

Per the records, this variant ( G1U U9G ) has self-cleavage equal to 0.399

Value of measured self-cleavage for the entry U12G U72A : 0.525
